Each recorded value in this set is attributed to patent US20210122814A1.

target: Cell-associated proTGFβ1 (hGARP-proTGFβ1 and hLRRC33-proTGFβ1); assay: BLI (Octet)
assayMetric: Cell AVRG (average KD) (pM)
Value expressed in pM; do not type the unit.

// known answers, use as guide
Ab26 (antibody, V domains shown) VH: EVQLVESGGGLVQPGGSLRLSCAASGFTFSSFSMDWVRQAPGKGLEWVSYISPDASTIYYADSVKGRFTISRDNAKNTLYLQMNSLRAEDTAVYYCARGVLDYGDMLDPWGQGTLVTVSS VL: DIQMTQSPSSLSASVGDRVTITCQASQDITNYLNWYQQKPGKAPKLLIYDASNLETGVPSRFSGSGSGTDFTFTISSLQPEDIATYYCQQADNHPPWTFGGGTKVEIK ... 492
Ab31 (antibody, V domains shown) VH: EVQLVESGGGLVQPGGSLRLSCAASGFTFSSFSMDWVRQAPGKGLEWVSYISPDASTIYYADSVKGRFTISRDNAKNTLYLQMNSLRAEDTAVYYCARAVLDYGDMLDPWGQGTLVTVSS VL: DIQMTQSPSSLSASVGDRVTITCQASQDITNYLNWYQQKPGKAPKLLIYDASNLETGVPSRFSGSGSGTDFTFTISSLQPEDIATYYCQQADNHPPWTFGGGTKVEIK ... 496

(Q) Please give the measured Cell AVRG (average KD) for this binder: Ab33 (antibody, V domains shown) VH: EVQLVESGGGLVQPGGSLRLSCAASGFTFSSFSMNWVRQAPGKGLEWVSYISPSADTIYYADSVKGRFTISRDNAKNTLYLQMNSLRAEDTAVYYCAHGVLDYGDMLDPWGQGTLVTVSS VL: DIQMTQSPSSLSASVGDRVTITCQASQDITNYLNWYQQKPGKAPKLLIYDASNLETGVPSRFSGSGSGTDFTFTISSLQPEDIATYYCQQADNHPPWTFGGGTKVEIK
(A) 302
